System: Serine/threonine-protein kinase N2 (Homo sapiens) | Read-out: Kd; further: in the data inactive means no Kd found up to 30 µM
Sequence (Q16513 whole entry): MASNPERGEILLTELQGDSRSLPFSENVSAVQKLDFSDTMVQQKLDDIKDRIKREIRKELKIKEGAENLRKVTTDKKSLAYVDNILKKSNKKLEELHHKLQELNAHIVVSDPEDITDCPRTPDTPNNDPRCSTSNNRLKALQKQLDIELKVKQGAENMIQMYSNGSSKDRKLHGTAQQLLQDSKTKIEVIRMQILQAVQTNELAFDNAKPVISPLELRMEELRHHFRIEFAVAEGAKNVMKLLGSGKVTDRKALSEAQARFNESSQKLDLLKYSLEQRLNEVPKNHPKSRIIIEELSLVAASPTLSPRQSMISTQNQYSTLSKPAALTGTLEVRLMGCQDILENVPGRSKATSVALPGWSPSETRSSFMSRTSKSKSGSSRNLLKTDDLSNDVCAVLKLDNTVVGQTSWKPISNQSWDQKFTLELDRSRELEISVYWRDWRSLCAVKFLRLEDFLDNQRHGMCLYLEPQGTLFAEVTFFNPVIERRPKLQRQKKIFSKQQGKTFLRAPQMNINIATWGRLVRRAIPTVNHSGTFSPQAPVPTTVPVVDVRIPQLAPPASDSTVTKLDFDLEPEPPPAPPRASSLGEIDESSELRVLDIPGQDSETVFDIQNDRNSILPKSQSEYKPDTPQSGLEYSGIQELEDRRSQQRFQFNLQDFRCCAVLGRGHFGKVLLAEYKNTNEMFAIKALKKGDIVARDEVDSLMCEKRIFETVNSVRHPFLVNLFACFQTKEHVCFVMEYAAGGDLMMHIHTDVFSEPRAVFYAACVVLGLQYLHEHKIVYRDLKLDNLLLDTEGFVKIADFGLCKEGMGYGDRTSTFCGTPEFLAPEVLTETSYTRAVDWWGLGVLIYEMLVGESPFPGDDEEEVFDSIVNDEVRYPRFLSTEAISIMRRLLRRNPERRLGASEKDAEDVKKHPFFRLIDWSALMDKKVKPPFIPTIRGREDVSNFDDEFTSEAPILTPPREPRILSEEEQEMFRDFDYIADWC
Activity calls are given as the source filed them.

Consider the following illustrative entries.
CO[C@H]1C[C@@H]2CC[C@@H](C)[C@@](O)(O2)C(=O)C(=O)N2CCCC[C@H]2C(=O)O[C@H]([C@H](C)C[C@@H]2CC[C@@H](OP(C)(C)=O)[C@H](OC)C2)CC(=O)[C@H](C)/C=C(\C)[C@@H](O)[C@@H](OC)C(=O)[C@H](C)C[C@H](C)/C=C/C=C/C=C/1C	> 30 µM (inactive)
Cc1nc2cc(-c3nn(C(C)C)c4ncnc(N)c34)ccc2o1	> 30 µM (inactive)

[ask] Provide the documented Kd with Serine/threonine-protein kinase N2 (Homo sapiens) as the system for C[C@@H](NC(=O)c1ncnc(N)c1Cl)c1ncc(C(=O)Nc2cc(C(F)(F)F)c(Cl)cn2)s1
[reply] > 30 µM (inactive)

Attribution: ChEMBL document CHEMBL3991601
